From: patent US11504364B2

# measurement-target: recombinant human FAPα (rhFAPα) (Homo sapiens (Human))
# Sequence (Q12884 whole entry): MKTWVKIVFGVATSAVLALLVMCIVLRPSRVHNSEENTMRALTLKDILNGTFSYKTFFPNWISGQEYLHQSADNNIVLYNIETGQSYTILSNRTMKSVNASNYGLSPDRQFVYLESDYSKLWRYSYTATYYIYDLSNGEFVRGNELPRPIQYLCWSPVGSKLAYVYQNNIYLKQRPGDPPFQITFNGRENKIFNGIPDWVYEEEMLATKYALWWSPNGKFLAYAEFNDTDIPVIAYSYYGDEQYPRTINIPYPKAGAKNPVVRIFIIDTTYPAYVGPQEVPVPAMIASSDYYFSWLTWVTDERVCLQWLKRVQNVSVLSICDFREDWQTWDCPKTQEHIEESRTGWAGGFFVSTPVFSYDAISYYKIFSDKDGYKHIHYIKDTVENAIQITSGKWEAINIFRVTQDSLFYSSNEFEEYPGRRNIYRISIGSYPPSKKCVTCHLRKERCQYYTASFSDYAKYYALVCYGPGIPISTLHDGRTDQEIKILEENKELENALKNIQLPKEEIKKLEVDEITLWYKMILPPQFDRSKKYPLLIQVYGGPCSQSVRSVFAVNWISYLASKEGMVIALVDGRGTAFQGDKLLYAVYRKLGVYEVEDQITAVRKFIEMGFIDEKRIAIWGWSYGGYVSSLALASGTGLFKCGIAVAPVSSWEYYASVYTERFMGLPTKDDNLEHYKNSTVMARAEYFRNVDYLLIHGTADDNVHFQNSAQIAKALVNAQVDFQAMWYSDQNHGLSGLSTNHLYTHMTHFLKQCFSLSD
# protocol-text: FAPα enzymatic exopeptidase (dipeptidase) activity assay, Z-Gly-Pro-AMC
# Format: biochemical
# reported-conditions: 1 μM test compound; exopeptidase; Table 3B; read-out: rhFAPα (% exo inh @ 1 μM)

{"columns": ["item-smiles", "inhibition at 1 µM"],
 "data": [
  ["CN1CCc2cc(-c3ccc4nccc(C(=O)NCC(=O)N5CC(F)(F)C[C@H]5C#N)c4c3)ccc2C1=O", "> 50%"],
  ["N#C[C@@H]1CC(F)(F)CN1C(=O)CNC(=O)c1ccnc2ccc(/C=C/c3ccc4ncccc4c3)cc12", "> 50%"],
  ["CN1CCN(Cc2ccc(-c3ccc4nccc(C(=O)NCC(=O)N5CC(F)(F)C[C@H]5C#N)c4c3)cc2)CC1", "> 50%"],
  ["N#C[C@@H]1CC(F)(F)CN1C(=O)CNC(=O)c1ccnc2ccc(-c3ccc4[nH]ncc4c3)cc12", "> 50%"],
  ["CC(=O)Nc1ccccc1-c1ccc2nccc(C(=O)NCC(=O)N3CC(F)(F)C[C@H]3C#N)c2c1", "> 50%"],
  ["C[C@@H](NC(=O)c1ccncc1-c1ccccc1)C(=O)N1CC(F)(F)C[C@H]1C#N", "< 25%"]
]}
